- TARGET_DESC: Sterol O-acyltransferase 1 (Homo sapiens)
- Sequence (P35610 whole entry): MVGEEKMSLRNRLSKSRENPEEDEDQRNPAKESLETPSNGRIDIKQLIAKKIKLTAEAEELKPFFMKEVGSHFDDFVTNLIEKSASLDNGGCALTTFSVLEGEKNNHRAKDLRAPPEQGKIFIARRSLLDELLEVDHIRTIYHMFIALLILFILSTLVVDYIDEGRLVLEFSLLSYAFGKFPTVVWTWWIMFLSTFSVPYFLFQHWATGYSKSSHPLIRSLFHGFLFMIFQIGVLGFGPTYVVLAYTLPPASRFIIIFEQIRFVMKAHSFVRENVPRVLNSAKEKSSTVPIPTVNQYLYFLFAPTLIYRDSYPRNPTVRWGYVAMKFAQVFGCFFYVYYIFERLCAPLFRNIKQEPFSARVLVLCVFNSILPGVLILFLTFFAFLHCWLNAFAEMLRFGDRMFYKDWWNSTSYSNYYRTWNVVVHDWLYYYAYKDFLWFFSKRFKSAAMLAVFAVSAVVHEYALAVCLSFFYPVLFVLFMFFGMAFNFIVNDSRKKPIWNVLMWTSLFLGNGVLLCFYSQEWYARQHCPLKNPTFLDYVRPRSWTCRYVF
- TEST_METHOD_NOTES: Inhibition of ACAT-mediated esterified cholesterol accumulation in human THP1 cells exposed to acetyl-LDL during differentiation assessed as effect on foam cell formation
- Type: cell-based, THP-1
pIC50: −log10 of the molar value.
For each entry below, report its pIC50 value.

Below, each entry is followed by its recorded pIC50 result.
1) CCCCCCCCN1CCc2c(C)c(Cc3nnn[nH]3)c(C)c(NC(=O)C(C)(C)C)c21 :: < 5.00
2) CCCCCCCCN1CCc2c(C)cc(C)c(NC(=O)C(C)(C)CCC(=O)O)c21 :: < 5.00

Problem: # pIC50 lookup, item Cc1cc(C)c(NC(=O)C(C)(C)C)c2c1CCN2CCCCCCCCCC(=O)O
Solution: < 5.00
